- System: T-47D breast
- experimental protocol: NCI-60 one-dose screen, 48 h (100 = growth as untreated, 0 = no growth, -100 = all killed)
- condition details: 10 µM unless noted
This is part of a sample that, as a whole, favours compounds with a hit. Of some 83,000 tested, about 20% had one in any assay.
measured quantity: growth (%)
Dear colleague, please return just the value in %, with no unit written.

Below: 6 compounds and their reported growth.
COc1cnc2c(c1)C(=O)c1c-2n(CCCCl)c(=O)c2ccncc12 :: 28.9
O=S(=O)(NCCCNc1nccc(-c2c(-c3cccc(F)c3)nc3occn23)n1)c1ccc(F)cc1 :: 6.92
CN(C)c1ccc(-c2nc(-c3ccccc3)c(-c3ccccc3)[nH]2)cc1 :: 79.3
O=C(CSc1nnc(-c2cc(-c3ccccc3)nc3ccccc23)n1-c1ccccc1)Nc1ccc(C(=O)/C=C/c2ccc(Cl)cc2)cc1 :: 73.8
CCOC(=O)C(=CNc1cnc(Nc2ccc(N3CCOCC3)cc2)nc1Oc1ccc(OC)cc1)C(=O)OCC :: 84.7
Cc1ccc2nc(/C(C#N)=C(/CCCO)NC(Cc3ccccc3)C(=O)OCc3ccccc3)[nH]c(=O)c2c1 (stereo not drawn) :: 93

Provide growth value for the following compound: COC(=O)c1c2c(c(C)[n+]([O-])c1C)C(=O)C(NCc1cccc(Cl)c1)=CC2=O
6

Provide growth value for the following compound: COc1ccc(Oc2nc(Nc3ccc(N4CCOCC4)cc3)ncc2NC(=O)Nc2cc(OC)cc(OC)c2)cc1
48.8

Provide growth value for the following compound: Cc1ccc(S(=O)(=O)Oc2ccc3sc4cccc(NCCN(C)C)c4c(=O)c3c2)cc1
-69.8

---

- Test system: RPMI-8226 leukemia
- experimental protocol: NCI-60 one-dose screen, 48 h (100 = growth as untreated, 0 = no growth, -100 = all killed)
- condition details: 10 µM unless noted
Compounds without any hit were thinned out: in the full panel of roughly 83,000, 20% have a hit. Activity calls are given as the source filed them. Rule for the calls: active = growth percent below 10; inactive = the rest.
measured quantity: growth

CCN1C(=O)N(CC)C2C1NC(=S)N2/N=C/c1ccc(C(F)(F)F)cc1 (stereo not given) :: 76.8% (inactive)
CCN1CCN(c2cc(C)nc(N(CCNc3ccnc4cc(Cl)ccc34)Cc3ccc4c(c3)OCO4)n2)CC1 :: -19.3% (active)
COC(=O)c1cc(Br)ccc1O :: 94.5% (inactive)
CCNc1ccc(-c2nc3ccccc3n3cccc23)cc1 :: 85.2% (inactive)
CCN1CCN(CC(=O)Nc2ccc(-c3cn4c(n3)sc3cc(Oc5ccnc(C(=O)NC)c5)ccc34)cc2)CC1 :: 59.2% (inactive)

Provide growth value for the following compound: CC(C)(C)c1cc(Cl)c(O)c(CNCCO)c1
113% (inactive)

Provide growth value for the following compound: COc1ccc(-c2nc3c(N)c(CO)cnc3s2)cc1
92.9% (inactive)

Provide growth value for the following compound: CCN(CC)CCCN1C(=O)c2c(c(C)c3c(oc4ccc(OC)cc43)c2C)C1=O
99.3% (inactive)

Provide growth value for the following compound: Cn1cc(-c2ccc(-c3cn(C)c4ccc(Cl)cc34)[nH]2)c2cc(Cl)ccc21
7.74% (active)

Provide growth value for the following compound: Cc1ccc(S(=O)(=O)OCCCOS(=O)(=O)c2ccc(C)cc2)cc1
76.2% (inactive)

---

- Test system: PC-3 prostate
- experimental protocol: NCI-60 one-dose screen, 48 h (100 = growth as untreated, 0 = no growth, -100 = all killed)
- condition details: 10 µM unless noted
The panel holds about 83,000 compounds, 20% with a hit somewhere; the sample as a whole holds those more often.
Listing of entries alongside the reported growth.
Dear colleague, please return just the value in %, with no unit written.

Below: 3 compounds and their reported growth.
CN1CCN(c2ccc3nc4c(nc3c2C(F)(F)F)C(=O)c2ncccc2C4=O)CC1 :: 8.01
Cc1ccc(S(=O)(=O)Oc2ccc3sc4cccc(NCCN(C)C)c4c(=O)c3c2)cc1 :: -86.4
CCN1C(=O)N(CC)C2C1N=C(SCc1ccc(Cl)cc1)N2/N=C/C=C/c1ccccc1OC (centres undefined) :: 43.7

Answer with growth of COc1ccccc1N(C(C)=O)C1=C(Cl)C(=O)c2ccccc2C1=O measured for PC-3 prostate.
3.3

Answer with growth of CN1CCN(C(=O)C(C)(C)c2ccc(C(=O)Nc3cn4cc(-c5ccncc5)ccc4n3)cc2)CC1 measured for PC-3 prostate.
25.7

Answer with growth of N#C/C(=C\c1ccc(-c2cccc(C(F)(F)F)c2)o1)c1ccccc1 measured for PC-3 prostate.
90.4

Answer with growth of CCN1CCN(CC(=O)Nc2nc3ccc(NCc4ccc(F)cc4)cc3s2)CC1 measured for PC-3 prostate.
78.9

Answer with growth of CCN(CC)CCN1C(=O)c2c(c(C)c3c(oc4ccc(OC)cc43)c2C)C1=O measured for PC-3 prostate.
90.7

Answer with growth of COc1cc2nc3sc(C(=O)Nc4ccc(C(=O)OC(C)C)cc4)c(C(=O)Nc4ccc(Cl)cc4C)n3c(=O)c2cc1OC measured for PC-3 prostate.
30.2

---

- Tested on: HCT-15 colon
- experimental protocol: NCI-60 one-dose screen, 48 h
- condition details: 10 µM unless noted
Compounds without any hit were thinned out: in the full panel of roughly 83,000, 20% have a hit. Calls of active or inactive are those of the source. How the source made its calls: active means growth percent below 10; inactive means the rest.
Form entry, call: pick from t for active, f for inactive

NC(=O)c1cccc([C@@H]2O[C@H](CO)[C@@H](O)[C@H]2O)c1 :: f
COc1cc(-c2nc3cc(Cl)c(Cl)cc3[nH]2)ccc1OCC(=O)N=Nc1c(O)[nH]c2ccc(Cl)cc12 :: f
NC(=O)c1c(NC(=O)c2cccs2)sc2c1CCC(=O)C2 :: f
CC(C)(C)n1cc(-c2ccnc(NCCCNS(=O)(=O)c3ccc(C(F)(F)F)cc3)c2)c(-c2cccc(F)c2)n1 :: f
O=C(/C=C/c1ccccc1)c1ccc(Nc2nc(Nc3ccc(F)cc3)nc(Nc3ccc(Cl)cc3)n2)cc1 :: f

Hi, do you know how Fc1cc(Nc2ccc3c(OCCCN4CCOCC4)cccc3n2)ccc1Cl came out in this test?
t

Hi, do you know how Cc1nc2sc(C(=O)Nc3cccc(Br)c3C)c(N)c2cc1C(O)c1ccccc1 (stereo unspecified) came out in this test?
f

Hi, do you know how CCN1C(=O)N(CC)C2C1NN=c1s/c(=C\c3ccc[nH]3)c(=O)n12 (stereo unspecified) came out in this test?
f

Hi, do you know how O=C1Nc2c(C(=O)O)cccc2/C1=N/c1n[nH]c(=S)s1 came out in this test?
f

Hi, do you know how CN1CCN(c2ccc3nc4c(nc3c2C(F)(F)F)C(=O)c2ncccc2C4=O)CC1 came out in this test?
t

Hi, do you know how CN(C)c1ccc(/C=C(\C#N)c2cc3ccccc3[nH]2)cc1 came out in this test?
f

Hi, do you know how Cn1cc(-c2csc(-c3c[nH]c4ccc(F)cc34)n2)c2ccnc(Cl)c21 came out in this test?
t

Hi, do you know how Cc1ccc(C(=O)c2ccc(CC(=O)NN3C(=O)c4ccccc4C3=O)n2C)cc1 came out in this test?
f

Hi, do you know how COc1ccc(/C=C(/c2ccccc2)[N+](=O)[O-])c(OC)c1 came out in this test?
t

Hi, do you know how CCOC(=O)C(=Cc1ccc(-c2ccccc2)cc1)C(=O)OCC came out in this test?
f

Hi, do you know how CCNC(=O)Oc1ccc(/C(=C(/CC)Cc2ccccc2)c2ccc(OCCN3CCCC3)cc2)cc1 came out in this test?
f

---

- Tested on: MDA-MB-231 breast
- experimental protocol: NCI-60 one-dose screen, 48 h
- condition details: 10 µM unless noted
- Protocol: Cells are grown in 96 well plates and exposed to the test compound for 48 hours. Compounds are tested at a single concentration, which is 10^-5 M for most compounds. The reported endpoint is percent growth (GI% or GIPRCNT), where numbers from 0 - 100% represent growth inhibition, and numbers from -100% - 0 represent cell death. For example, a value of 40 represents 60% growth inhibition. A value of 0 means no net growth occurred over the course of the experiment. […]
The panel holds about 83,000 compounds, 20% with a hit somewhere; the sample as a whole holds those more often. Activity calls are given as the source filed them. The calls were made as follows: active = growth percent below 10; inactive = the rest.
Form entry, call: pick from T (active), F (inactive)

A selection of reference data follows.
COc1ccc(/C=C/c2c(C(=O)/C=C/c3ccccc3)c(C)nc3ccccc23)cc1 :: F
O=C(NC1CC(F)C1)c1cc2cccnc2n1-c1ccc(Cl)c(Cl)c1 (centres undefined) :: F
O=C(/C=C/c1ccc(Cl)cc1)c1cccc(OCCCOc2cccc(C(=O)/C=C/c3ccc(Cl)cc3)c2)c1 :: F
C=CCC(CCCC)(C(=O)OCC)C(=O)OCC :: F
O=C1/C=C/[C@@H](O)[C@@H]2C[C@@H](O)C[C@H]2/C=C/CCC[C@@H](O)CCO1 :: F
COc1cc2c(cc1OCCCCN1CCN(C(=S)SCCC(C#N)(c3ccccc3)c3ccccc3)CC1)N=C[C@@H]1CCCN1C2=O :: T

Hi, do you know how COc1ccc2c(c1)c(-c1nc(-c3c[nH]c4ncccc34)cs1)cn2CCO came out in this test?
F

Hi, do you know how COc1ccc(/C=C2\CN(C(=O)C(Cl)Cl)C/C(=C\c3ccc(OC)cc3)C2=O)cc1 came out in this test?
T

Hi, do you know how Cn1cc(-c2csc(-c3cn(CCCN4CCOCC4)c4ccccc34)n2)c2cccnc21 came out in this test?
F

Hi, do you know how Fc1ccc2[nH]cc(-c3nc(-c4c[nH]c5ccncc45)cs3)c2c1 came out in this test?
T

Hi, do you know how COc1ccc(/C=C(/c2ccccc2)[N+](=O)[O-])c(OC)c1 came out in this test?
F

Hi, do you know how COc1cc(/C=C/C(=O)c2ccc(-n3cc(CN4CCN(c5cc6c(cc5F)c(=O)c(C(=O)O)cn6C5CC5)CC4)nn3)cc2)ccc1O came out in this test?
F

Hi, do you know how Nn1c(=O)c(=O)[nH]c2c(cnn2-c2ccccc2)c1=O came out in this test?
F

Hi, do you know how CN1CCN(Cc2ccc(NC(=O)c3cncc(C#Cc4cnc5ccc(Cl)nn45)c3)cc2C(F)(F)F)CC1 came out in this test?
T
